IC50 by entry:
# systemUnderTest: ASIC1a (Homo sapiens)
# Sequence (P78348 whole entry, species assumed): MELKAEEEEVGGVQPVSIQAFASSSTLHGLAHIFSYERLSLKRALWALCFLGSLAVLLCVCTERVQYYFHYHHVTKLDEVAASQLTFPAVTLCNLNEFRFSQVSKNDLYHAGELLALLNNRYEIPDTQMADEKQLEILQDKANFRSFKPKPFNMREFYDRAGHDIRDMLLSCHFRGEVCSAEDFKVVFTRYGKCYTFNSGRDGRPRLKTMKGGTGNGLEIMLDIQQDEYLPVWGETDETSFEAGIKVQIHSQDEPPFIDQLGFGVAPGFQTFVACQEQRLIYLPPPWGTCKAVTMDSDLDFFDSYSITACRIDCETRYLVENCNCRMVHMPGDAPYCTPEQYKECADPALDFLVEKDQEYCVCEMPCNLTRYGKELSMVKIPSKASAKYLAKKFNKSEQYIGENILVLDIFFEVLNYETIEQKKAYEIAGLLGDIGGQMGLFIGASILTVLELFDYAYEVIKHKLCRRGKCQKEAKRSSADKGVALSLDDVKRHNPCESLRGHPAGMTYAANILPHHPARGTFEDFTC
# methodDescription: Calcium imaging of MES-induced calcium response (FLIPR)
# Type: cell-based
# Design: host or cells: HEK293
# appliedConditions: ASIC1a expressing HEK293 cells, MES-induced calcium response; read-out: IC50 (FLIPR)

CCOC(=O)CNCc1ccc(-c2ccccc2)c2c1CN(C)CC2; > 70 µM
CN1CCc2c(-c3ccccc3Cl)cc3c(c2C1)NC(=O)/C3=N/O; 35 to 45 µM
CN1CCc2c(-c3cccc(Cl)c3)cc3c(c2C1)NC(=O)/C3=N\O; < 10 µM
CN1CCc2c(-c3ccccc3)cc3c(c2C1)NC(=O)/C3=C/c1cccc(O)c1; > 70 µM
CN1CCc2c(-c3ccccc3)ccc(CNCC(=O)O)c2C1; > 70 µM
CCOC(=O)CNc1ccc(-c2ccccc2)c2c1CN(C)CC2; 20 to 40 µM
CN1CCc2c(-c3ccc(OC(F)(F)F)cc3)cc3c(c2C1)NC(=O)/C3=N/O; > 70 µM
CC(=O)Nc1c([N+](=O)[O-])cc(-c2ccccc2)c2c1CN(C)CC2; > 70 µM

So what IC50 did `COC(=O)c1cc(-c2ccccc2)c2c(c1C(=O)OC)CN(C)CC2` get with ASIC1a (Homo sapiens)? > 70 µM

What do you have for `CN1CCc2c(-c3ccccc3)ccc(NCCO)c2C1` ? > 70 µM

What about `CN1CCc2c(-c3ccccc3)cc3c(c2C1)NC(=O)/C3=C/c1ccc(O)cc1` ? > 70 µM

Next: `CN1CCc2c(-c3cc(C(F)(F)F)cc(C(F)(F)F)c3)cc3c(c2C1)NC(=O)/C3=N\O` 40 to 60 µM

Next up: `CN1CCc2c(-c3ccccc3)ccc(NC(=O)CCO)c2C1` > 70 µM

Another compound: `CC(=O)N1CCc2c(-c3ccc(Cl)cc3)cc3c(c2C1)NC(=O)C3=NO` > 70 µM

// repeat for `CN1CCc2c(-c3ccccc3)cc3c(c2C1)NC(=O)/C3=C/c1cccc(C(=O)O)c1` and report > 70 µM

Same lookup for `CCOC(=O)C(=O)Nc1ccc(-c2ccccc2)c2c1CN(C(=O)OCC)CC2` , please. > 70 µM

Also check `CN1CCc2c(-c3ccccc3)cc3c(c2C1)NC(=O)/C3=N/NC(N)=S` > 70 µM

What do we get for `COC(=O)c1ccc(-c2ccccc2)c2c1CN(C(=O)OC(C)(C)C)CC2` ? > 70 µM
